target: RORα (Homo sapiens); construct: expressed in transfected cells; host or cells: CV-1 cells (ATCC CCL-70); experiment: Transcriptional activity of RORα, RORE-tk-Luc reporter in CV-1 cells (Experimental Example 1); assay type: cell-based; settings: JC1 compounds 100 μM, 24 hours; luciferase activity standardized by β-gal; versus control treated only with solvent
Sequence (P35398 whole entry): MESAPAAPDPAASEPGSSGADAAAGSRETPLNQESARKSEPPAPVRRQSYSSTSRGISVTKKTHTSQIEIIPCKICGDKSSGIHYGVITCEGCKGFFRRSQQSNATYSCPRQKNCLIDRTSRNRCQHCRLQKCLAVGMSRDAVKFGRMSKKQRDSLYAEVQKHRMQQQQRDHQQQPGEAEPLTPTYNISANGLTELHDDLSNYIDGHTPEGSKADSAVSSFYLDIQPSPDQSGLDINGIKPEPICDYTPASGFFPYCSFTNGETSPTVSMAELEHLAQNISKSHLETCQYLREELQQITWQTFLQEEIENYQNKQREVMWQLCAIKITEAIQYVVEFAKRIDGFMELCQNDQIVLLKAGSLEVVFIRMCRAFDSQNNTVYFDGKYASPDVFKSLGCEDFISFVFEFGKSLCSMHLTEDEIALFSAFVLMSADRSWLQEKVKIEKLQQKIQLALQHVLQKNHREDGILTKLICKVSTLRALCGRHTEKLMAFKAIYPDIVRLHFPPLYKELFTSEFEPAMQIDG
Tick Condition met if Fold Activation is 2 or greater. Tick Condition not met if Fold Activation is less than 2.

Could you tell me if the measured Fold Activation of CNC(=S)NCc1ccc2c(c1)OCO2 reaches 2 or more?
Condition not met

Does Fold Activation meet or surpass 2 for CNC(=S)NCc1ccc(Cl)c(Cl)c1 ?
Condition not met

Tell me whether Fold Activation is at least 2 here: CNC(=S)NCc1ccc(C)cc1
Condition met

Test whether the molecule CNC(=S)NCc1ccc(Oc2ccc(F)cc2)cc1 records Fold Activation of 2 or higher.
Condition not met

Tell me whether Fold Activation is at least 2 here: CNC(=S)NCc1ccc(O)c(OC)c1
Condition not met
